Define the label as class 1 when glass transition temperature is strictly less than 300 °C and as class 0 in all remaining cases.

Before answering, review these 6 worked examples.
**Query** Consider *CC(F)(F)C(F)(F)C(F)(F)COC(=O)c1cccc(C(F)(F)C(F)(F)C(F)(F)C(F)(F)C(F)(F)c2cccc(C(=O)O*)c2)c1 (repeat unit) . Does its glass transition temperature lie strictly below 300 °C?
**Result** class 1

**Query** Consider *c1ccc(-c2ccc(-n3c(=O)c4cc5c(=O)n(*)c(=O)c5cc4c3=O)cc2C(F)(F)F)c(C(F)(F)F)c1 (repeat unit) . Does its glass transition temperature lie strictly below 300 °C?
**Result** class 0

**Query** Consider *CCCCCCOC(=O)c1ccc(-c2ccc(C(=O)O*)cc2)cc1 (repeat unit) . Does its glass transition temperature lie strictly below 300 °C?
**Result** class 1

**Query** Consider *CC(=O)Nc1ccc(Cc2ccc(NC(=O)CN3C(=O)c4ccc(C(=O)c5ccc6c(c5)C(=O)N(*)C6=O)cc4C3=O)cc2)cc1 (repeat unit) . Does its glass transition temperature lie strictly below 300 °C?
**Result** class 1

**Query** Consider *c1ccc(C(=O)Oc2ccc3ccc(OC(=O)c4ccc(N5C(=O)CC(SCCOCCSC6CC(=O)N(*)C6=O)C5=O)cc4)cc3c2)cc1 (repeat unit) . Does its glass transition temperature lie strictly below 300 °C?
**Result** class 1

**Query** Consider *CC(*)(F)C(=O)OCC(Cl)(Cl)Cl (repeat unit) . Does its glass transition temperature lie strictly below 300 °C?
**Result** class 1

***
**Query** Consider *c1ccc(C(=O)Nc2ccc(Oc3ccc(S(=O)(=O)c4ccc(Oc5ccc(NC(=O)c6ccc(N7C(=O)c8ccc(-c9ccc%10c(c9)C(=O)N(*)C%10=O)cc8C7=O)cc6)cc5)cc4)cc3)cc2)cc1 (repeat unit) . Does its glass transition temperature lie strictly below 300 °C?
**Result** class 1

**Query** Consider *c1ccc(Cc2ccccc2-n2c(=O)c3cc4c(=O)n(*)c(=O)c4cc3c2=O)cc1 (repeat unit) . Does its glass transition temperature lie strictly below 300 °C?
**Result** class 0

**Query** Consider *Oc1ccc(OC(=O)c2cc(OCCCCCCCCCCCC)c(C(*)=O)cc2OCCCCCCCCCCCC)cc1C (repeat unit) . Does its glass transition temperature lie strictly below 300 °C?
**Result** class 1

**Query** Consider *CC1CCCC(CN2C(=O)c3ccc(Oc4ccc5c(c4)C(=O)N(*)C5=O)cc3C2=O)C1 (repeat unit) . Does its glass transition temperature lie strictly below 300 °C?
**Result** class 1

**Query** Consider *c1cc(C(=O)O)cc(N2C(=O)CC(C3CC4C(=O)N(*)C(=O)C4c4ccccc43)C2=O)c1 (repeat unit) . Does its glass transition temperature lie strictly below 300 °C?
**Result** class 0

**Query** Consider *Nc1ccc(-c2ccc(NC(=O)Cc3cc(CC(*)=O)c(C)cc3C)cc2)cc1 (repeat unit) . Does its glass transition temperature lie strictly below 300 °C?
**Result** class 1

###

valueKind: glass transition temperature (°C)
Report the figure in °C without appending any unit label.

Some entries whose results are on file:
**Query** Quick one: glass transition temperature of *Nc1ccc(Cc2ccc(NC(=O)c3cc(NC(=O)CCCCCN4C(=O)c5ccccc5C4=O)cc(C(*)=O)c3)cc2)cc1 (repeat unit) ?
**Result** 195.00

**Query** Quick one: glass transition temperature of *c1ccc2c(c1)C(*)(C)CC2(C)C (repeat unit) ?
**Result** 215.50

***
**Query** Quick one: glass transition temperature of *c1ccc(-c2ccc(-c3cc(CCCCCCCC)c(-c4ccc(-c5sc(*)cc5CCCCCCCC)cc4)s3)cc2)cc1 (repeat unit) ?
**Result** 0.60

**Query** Quick one: glass transition temperature of *c1ccc(Oc2ccc(-c3ccc(-c4ccc(Oc5ccc(-c6c7c(c(*)c8ccccc68)C(=O)N(c6ccccc6)C7=O)cc5)c(C(F)(F)F)c4)cc3)cc2C(F)(F)F)cc1 (repeat unit) ?
**Result** 317.00

**Query** Quick one: glass transition temperature of *Nc1cc(NC(=O)c2ccc(C(*)=O)cc2)cc(-c2nc3ccccc3oc2=O)c1 (repeat unit) ?
**Result** 103.00

**Query** Quick one: glass transition temperature of *CCCCCCCCCCC(=O)O* (repeat unit) ?
**Result** -46.0

**Query** Quick one: glass transition temperature of *CC(*)(C#N)C(=O)OCC(C)C (repeat unit) ?
**Result** 51.00

**Query** Quick one: glass transition temperature of *Oc1ccc(C(=O)c2ccc(OC(=O)c3ccc(C(C)(C)c4ccc(C(*)=O)cc4)cc3)cc2)cc1 (repeat unit) ?
**Result** 130.00

###

valueKind: glass transition temperature

**Query** Quick one: glass transition temperature of *c1ccc(Oc2cc(C(C)(C)C)c(Oc3ccc(N4C(=O)c5ccc(-c6ccc7c(c6)C(=O)N(*)C7=O)cc5C4=O)cc3)cc2C(C)(C)C)cc1 (repeat unit) ?
**Result** 293.00 °C

***
**Query** Quick one: glass transition temperature of *CCCCCCOc1ccc(/C=C2\CCC/C(=C\c3ccc(O*)c(OC)c3)C2=O)cc1OC (repeat unit) ?
**Result** 80.00 °C

**Query** Quick one: glass transition temperature of *c1ccc(Cc2ccc(N3C(=O)c4ccc(Oc5ccc(C6(c7ccc(Oc8ccc9c(c8)C(=O)N(*)C9=O)cc7)CCCCCCCCCCC6)cc5)cc4C3=O)cc2)cc1 (repeat unit) ?
**Result** 240.00 °C

**Query** Quick one: glass transition temperature of *C1C2C/C(=C\C)C(C2)C1* (repeat unit) ?
**Result** 61.40 °C

**Query** Quick one: glass transition temperature of *c1cc(C)c(Oc2ccc(S(=O)(=O)c3ccc(Oc4cc(C)c(C5(*)OC(=O)c6ccccc65)cc4C)cc3)cc2)cc1C (repeat unit) ?
**Result** 269.00 °C

**Query** Quick one: glass transition temperature of *c1ccc([Si](c2ccccc2)(c2ccccc2)c2ccc(-c3nnc(-c4ccc(-c5nnc(*)o5)c5ccccc45)o3)cc2)cc1 (repeat unit) ?
**Result** 273.00 °C

###

Property: glass transition temperature; scope: individual compounds
Report the figure in °C without appending any unit label.

**Query** Quick one: glass transition temperature of *Oc1ccc(C(=O)OCC(C)(C)COC(=O)c2ccc(*)cc2)cc1 (repeat unit) ?
**Result** 73.00

**Query** Quick one: glass transition temperature of *c1ccc2c(c1)C(=O)N(c1ccc(Oc3ccc(N4C(=O)c5ccc(C(F)(F)C(F)(F)C(F)(F)C(F)(F)C(F)(F)C(*)(F)F)cc5C4=O)cc3)cc1)C2=O (repeat unit) ?
**Result** 185.00

**Query** Quick one: glass transition temperature of *CCSSCCOCO* (repeat unit) ?
**Result** -57.50

***
**Query** Quick one: glass transition temperature of *CC(*)(C)C(=O)NC(=O)Oc1c(Br)cc(S(=O)(=O)c2cc(Br)c(O)c(Br)c2)cc1Br (repeat unit) ?
**Result** 116.00

**Query** Quick one: glass transition temperature of *Oc1c(C)cc(C(C)(C)c2cc(C)c(OC(=O)CCCCCCCCC(*)=O)c(C)c2)cc1C (repeat unit) ?
**Result** 45.00

**Query** Quick one: glass transition temperature of *c1ccc(Cc2ccc(-c3nc(-c4cccc(-c5nnc(-c6ccccc6)c(*)n5)n4)nnc3-c3ccccc3)cc2)cc1 (repeat unit) ?
**Result** 205.00

**Query** Quick one: glass transition temperature of *Oc1ccc(-c2ccc(Oc3ccc(C(=O)c4ccc(C(=O)c5ccc(*)cc5)cc4)cc3)cc2)cc1 (repeat unit) ?
**Result** 173.00

**Query** Quick one: glass transition temperature of *CC(*)C(=O)OC(F)(C(F)(F)F)C(F)(F)F (repeat unit) ?
**Result** 10.00

###

Grouping key: glass transition temperature. Bins: low bin = under 100 °C, mid bin = from 100 °C up to 200 °C, high bin = 200 °C and over

**Query** Kindly state the category for this compound: *Oc1cccc(Oc2ccc(-c3ccc(*)cc3)cc2)c1C#N (repeat unit)
**Result** high bin

***
**Query** Kindly state the category for this compound: *CC(*)C(=O)Oc1ccc(C(C)(C)C)cc1 (repeat unit)
**Result** low bin

**Query** Kindly state the category for this compound: *Oc1ccc(C(=O)c2ccc(Oc3ccc(C(c4ccc(*)cc4)(C(F)(F)F)C(F)(F)F)cc3)cc2)c2ccccc12 (repeat unit)
**Result** mid bin

**Query** Kindly state the category for this compound: *c1ccc(Oc2ccccc2-n2c(=O)c3cc4c(=O)n(*)c(=O)c4cc3c2=O)cc1 (repeat unit)
**Result** high bin

**Query** Kindly state the category for this compound: *Oc1c(C(C)C)cc(C(=O)c2cccc(C(=O)c3ccc(*)cc3)c2)cc1C(C)C (repeat unit)
**Result** mid bin

**Query** Kindly state the category for this compound: *C1C(=O)N(C2CCCCC2)C(=O)C1* (repeat unit)
**Result** high bin

**Query** Kindly state the category for this compound: *CC(*)(C)C(=O)OCCCCCCCCCCn1c2ccccc2c2cc(/N=N/c3ccc([N+](=O)[O-])cc3)ccc21 (repeat unit)
**Result** low bin

**Query** Kindly state the category for this compound: *CC(*)(C)C(=O)Oc1ccc2c(c1)CCC2 (repeat unit)
**Result** mid bin
